Reported T m (°C) Apo +2 μM PLP by item:
Test: Differential scanning fluorimetry (DSF), apparent Tm of YggS forms
Type: physicochemical
Conditions: 2 μM protein + 2 μM (equimolar) PLP
Enter your answer as a number in °C; do not include the unit.

Illustrative cases are given below, each with its answer.
| molecule | measurement name | unit tag | numeric value |
| --- | --- | --- | --- |
| K36A/K38A/K137A: E. coli YggS triple lysine variant (protein, left off: His-tag, C-terminal, state not stated, E. coli YggS triple lysine variant) MNDIAHNLAQVRDKISAAATRCGRSPEEITLLAVSATAPASAIAEAIDAGQRQFGENYVQEGVDKIRHFQELGVTGLEWHFIGPLQSNKSRLVAEHFDWCHTIDRLRIATRLNDQRPAELPPLNVLIQINISDENSASGIQLAELDELAAAVAELPRLRLRGLMAIPAPESEYVRQFEVARQMAVAFAGLKTRYPHIDTLSLGMSDDMEAAIAAGSTMVRIGTAIFGARDYSKK | T m (°C) Apo +2 μM PLP | °C | 69.4 |
| K36A/K38A/K233A/K234A: E. coli YggS triple lysine variant (protein, left off: His-tag, C-terminal, state not stated, E. coli YggS triple lysine variant) MNDIAHNLAQVRDKISAAATRCGRSPEEITLLAVSATAPASAIAEAIDAGQRQFGENYVQEGVDKIRHFQELGVTGLEWHFIGPLQSNKSRLVAEHFDWCHTIDRLRIATRLNDQRPAELPPLNVLIQINISDENSKSGIQLAELDELAAAVAELPRLRLRGLMAIPAPESEYVRQFEVARQMAVAFAGLKTRYPHIDTLSLGMSDDMEAAIAAGSTMVRIGTAIFGARDYSAA | T m (°C) Apo +2 μM PLP | °C | 68.9 |
| K36A/K137A/K233A/K234A: E. coli YggS triple lysine variant (protein, left off: His-tag, C-terminal, state not stated, E. coli YggS triple lysine variant) MNDIAHNLAQVRDKISAAATRCGRSPEEITLLAVSATKPASAIAEAIDAGQRQFGENYVQEGVDKIRHFQELGVTGLEWHFIGPLQSNKSRLVAEHFDWCHTIDRLRIATRLNDQRPAELPPLNVLIQINISDENSASGIQLAELDELAAAVAELPRLRLRGLMAIPAPESEYVRQFEVARQMAVAFAGLKTRYPHIDTLSLGMSDDMEAAIAAGSTMVRIGTAIFGARDYSAA | T m (°C) Apo +2 μM PLP | °C | 64.7 |

Given item K36A/K38A/K137A/K233A/K234A: E. coli YggS quadruple lysine variant (protein, left off: His-tag, C-terminal, state not stated, E. coli YggS quadruple lysine variant) MNDIAHNLAQVRDKISAAATRCGRSPEEITLLAVSATAPASAIAEAIDAGQRQFGENYVQEGVDKIRHFQELGVTGLEWHFIGPLQSNKSRLVAEHFDWCHTIDRLRIATRLNDQRPAELPPLNVLIQINISDENSASGIQLAELDELAAAVAELPRLRLRGLMAIPAPESEYVRQFEVARQMAVAFAGLKTRYPHIDTLSLGMSDDMEAAIAAGSTMVRIGTAIFGARDYSAA , the value recorded as its T m (°C) Apo +2 μM PLP is 68.8

Per the record, K137A: E. coli YggS single lysine variant K137A (protein, left off: His-tag, C-terminal, state not stated) MNDIAHNLAQVRDKISAAATRCGRSPEEITLLAVSKTKPASAIAEAIDAGQRQFGENYVQEGVDKIRHFQELGVTGLEWHFIGPLQSNKSRLVAEHFDWCHTIDRLRIATRLNDQRPAELPPLNVLIQINISDENSASGIQLAELDELAAAVAELPRLRLRGLMAIPAPESEYVRQFEVARQMAVAFAGLKTRYPHIDTLSLGMSDDMEAAIAAGSTMVRIGTAIFGARDYSKK has T m (°C) Apo +2 μM PLP of 71.5
